Answer each item with its documented PBM binding z-score.
Test system: RARg homodimer (NR concentration 270 nM)
test.method.notes: PBM binding z-score (relative to random genomic background probes); higher = stronger binding; sequences stand for … in GC…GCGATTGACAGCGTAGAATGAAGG
Answer field: number only, no words.

Input line: Please report the recorded PBM binding z-score for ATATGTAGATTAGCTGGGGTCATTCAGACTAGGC .
Output line: 2.17

Input line: TCTAGATGGTCAAAGGTCACACACTCGAAATGCG , same question.
Output line: 5.87

Input line: CGTCCAAGTTCAAAGGTCAGTGAAGAGATGACGG , same question.
Output line: 6.28

Input line: CGGCCAAGGTCAGAGAGGTCAGTGAATGCCGAGT , same question.
Output line: 7.62

Input line: CTTCAAAGTTCAAGGTAACGTAACAGAAAGCAGC , same question.
Output line: 6.14

Input line: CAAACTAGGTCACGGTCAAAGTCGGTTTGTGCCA , same question.
Output line: 5.89

Input line: TCTTGTAGATCAAAGGTTAAAAAAGCCGAAGCCT , same question.
Output line: 0.557

Input line: CGTCCAAGGTCAAGGTCAGTAAAAGAGACTCGAA , same question.
Output line: 7.87

Input line: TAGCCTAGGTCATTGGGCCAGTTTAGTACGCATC , same question.
Output line: 3.68

Input line: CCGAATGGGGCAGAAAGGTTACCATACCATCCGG , same question.
Output line: 1.36

Input line: ATATGGAGGTTACATCCGGGTCATTCAGGCTATG , same question.
Output line: 2.66

Input line: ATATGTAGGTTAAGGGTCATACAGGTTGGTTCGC , same question.
Output line: 3.57

Input line: CGTCCAAGGTCGAGGTCAGTGAAAGAGACTCGAA , same question.
Output line: 5.32

Input line: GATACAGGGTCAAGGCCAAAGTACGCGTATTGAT , same question.
Output line: 5.29

Input line: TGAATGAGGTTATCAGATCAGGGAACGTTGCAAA , same question.
Output line: 1.06

Input line: CCTCGGAGGACAACAGGAGTTCAGAGCTGCCAGA , same question.
Output line: 1.9

Input line: GCATATAGCTAATACAAGGTGAAAGTCCGATTGT , same question.
Output line: 0.451

Input line: TCGCCTAGGTCATTGGGCCAGTATAGTACGCATC , same question.
Output line: 3.88

Input line: TCAGACAGGTGAACGTAACTCAGGTACGCAGTCG , same question.
Output line: 0.768

Input line: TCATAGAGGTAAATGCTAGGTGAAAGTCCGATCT , same question.
Output line: 0.235

Input line: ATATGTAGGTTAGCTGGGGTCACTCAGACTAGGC , same question.
Output line: 3.51

Input line: CTCGAAAAGTCGGTTGAGGTGAGTATACGGATAA , same question.
Output line: 0.172

Input line: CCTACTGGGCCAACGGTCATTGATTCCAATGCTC , same question.
Output line: 0.841

Input line: AGTCAGAGTTCAGGACGAGGTAACGTAAAGCACG , same question.
Output line: 4.28

Input line: CGTCCATGGTCAAAGGTCAGTGAAGAGATGACGG , same question.
Output line: 5.53

Input line: GCTAGTTGGTCAGGAAAAGGTCACACACCGGTCG , same question.
Output line: 4.46

Input line: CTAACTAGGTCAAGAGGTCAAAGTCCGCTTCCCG , same question.
Output line: 7.39

Input line: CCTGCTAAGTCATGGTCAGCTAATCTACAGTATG , same question.
Output line: 0.315

Input line: CCTATTGGGCCAAGGTCATTGATCAGTCAAAGCA , same question.
Output line: 3.22

Input line: CCTTACGGGTCACTGACAGGTGATAGCATTTGGA , same question.
Output line: 4.84

Input line: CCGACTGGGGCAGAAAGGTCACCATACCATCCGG , same question.
Output line: 5.69

Input line: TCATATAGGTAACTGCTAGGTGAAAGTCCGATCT , same question.
Output line: 0.315

Input line: TAGCCTAGGTCATTCAGCGGCCAGTATAGAAAGC , same question.
Output line: 4.44

Input line: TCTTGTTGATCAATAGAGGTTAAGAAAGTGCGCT , same question.
Output line: 0.28

Input line: CTCGAAAGGTCGGCTGAGGTGAGTATACGGATAA , same question.
Output line: 3.8

Input line: CAACCTAGGTCAGGGCCAGTATAGGAGGAACGTT , same question.
Output line: 4.18

Input line: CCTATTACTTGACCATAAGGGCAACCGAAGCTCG , same question.
Output line: 1.15

Input line: CGTCCAAGGTCAAAGGTCAGTGAAGAGATGACGG , same question.
Output line: 7.94

Origin of values: the supplement of paper PMC6555819
